Just for reference, ChEMBL document CHEMBL1961873 is where these values come from.

# tested_system: Death-associated protein kinase 1 (Homo sapiens);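 note: each value is a mean inhibition figure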
# test_parameters: at 1 µM
# inhibition values compiled below
Enter your answer as a number in %; do not include the unit.

[[record]]
structure_as_smiles = "N#Cc1cccc(Nc2nccc(-c3cnn4ncccc34)n2)c1"
experimental_endpoint = "inhibition"
unit_string = "%"
result = 3.93

[[record]]
structure_as_smiles = "Cc1ccc2c(-c3ccnc(Nc4ccc5c(c4)OCCO5)n3)c(-c3ccc(C(F)(F)F)cc3)nn2n1"
experimental_endpoint = "inhibition"
unit_string = "%"
result = 1.35


Shifting focus to the compound that follows.
IN: For "COC(=O)Nc1nc2cc(Oc3ccc(NC(=O)Nc4cccc(Br)c4)cc3)ccc2[nH]1" , what is its reported inhibition?
OUT: 2.38

###

# inhibition per record follows
# tested_system: Mitogen-activated protein kinase kinase kinase kinase 4 (Homo sapiens) (UniProt O95819);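 note: reported figure is an averaged inhibition value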
# Sequence (O95819 2-1239 limits assumed): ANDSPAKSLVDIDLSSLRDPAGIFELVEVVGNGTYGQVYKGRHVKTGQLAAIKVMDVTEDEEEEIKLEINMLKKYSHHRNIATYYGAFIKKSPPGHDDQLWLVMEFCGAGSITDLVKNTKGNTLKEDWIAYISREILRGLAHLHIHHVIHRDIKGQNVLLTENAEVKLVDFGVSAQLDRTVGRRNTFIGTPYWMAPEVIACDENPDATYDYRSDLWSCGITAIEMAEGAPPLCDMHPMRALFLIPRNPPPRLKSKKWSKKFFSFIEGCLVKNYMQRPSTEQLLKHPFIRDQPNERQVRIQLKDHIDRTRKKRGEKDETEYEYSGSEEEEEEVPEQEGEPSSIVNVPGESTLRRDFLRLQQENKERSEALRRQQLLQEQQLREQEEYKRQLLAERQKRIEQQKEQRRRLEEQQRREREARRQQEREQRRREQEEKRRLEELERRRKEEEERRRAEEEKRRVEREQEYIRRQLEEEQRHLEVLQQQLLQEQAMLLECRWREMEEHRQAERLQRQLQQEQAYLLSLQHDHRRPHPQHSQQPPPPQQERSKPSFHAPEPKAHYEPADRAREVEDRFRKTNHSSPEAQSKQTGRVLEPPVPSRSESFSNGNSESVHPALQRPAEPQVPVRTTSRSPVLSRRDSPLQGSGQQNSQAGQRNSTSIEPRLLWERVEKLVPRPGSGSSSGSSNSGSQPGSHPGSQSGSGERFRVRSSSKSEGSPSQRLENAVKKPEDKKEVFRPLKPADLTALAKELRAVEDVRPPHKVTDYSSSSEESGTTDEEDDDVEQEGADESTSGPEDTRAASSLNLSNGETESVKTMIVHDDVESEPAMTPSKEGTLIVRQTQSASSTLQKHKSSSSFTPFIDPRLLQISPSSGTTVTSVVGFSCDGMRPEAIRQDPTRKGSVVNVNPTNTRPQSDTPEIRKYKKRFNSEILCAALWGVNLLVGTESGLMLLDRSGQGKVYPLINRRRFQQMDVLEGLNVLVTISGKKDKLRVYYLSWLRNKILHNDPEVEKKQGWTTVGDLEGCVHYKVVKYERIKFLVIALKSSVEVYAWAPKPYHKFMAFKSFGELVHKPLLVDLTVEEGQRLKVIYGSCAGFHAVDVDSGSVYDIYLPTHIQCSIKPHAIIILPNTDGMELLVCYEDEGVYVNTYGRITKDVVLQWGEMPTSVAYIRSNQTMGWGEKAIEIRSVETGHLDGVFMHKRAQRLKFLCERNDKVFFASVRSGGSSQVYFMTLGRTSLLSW
# test_parameters: at 1 µM
Return type: number; implicit unit %.

[[record]]
structure_as_smiles = "Cc1cc(O)cc(C)c1/C=C/c1cncc(C(=O)N(C)C)c1"
unit_string = "%"
result = 12.6

[[record]]
structure_as_smiles = "c1ccc(Nc2ncc(-c3ccccc3)o2)cc1"
unit_string = "%"
result = 25.9

[[record]]
structure_as_smiles = "Cc1cc(Cl)cc2c1NC(=O)C2=NNc1ccc(S(N)(=O)=O)cc1"
unit_string = "%"
result = 56.5


IN: Report inhibition for "NC(=O)c1sc(-n2cnc3ccccc32)cc1OCc1ccccc1Br" please.
OUT: 11.3

IN: // inhibition lookup, key: "COC(=O)c1cncc(/C=C/c2c(C)cc(O)cc2C)c1"
OUT: 18.8

IN: Fill in: inhibition of "OCc1ccc(-c2nc(-c3ccccn3)c(-c3ccc4c(c3)OCO4)[nH]2)cc1" is ___
OUT: 6.4

IN: What does the record list as inhibition for "COc1ccc(-c2nn3ncccc3c2-c2ccnc(Nc3cccc(C(F)(F)F)c3)n2)cc1" ?
OUT: 4.62

IN: // lookup inhibition for "NC(=O)c1cccc(Nc2nccc(Nc3cccc(F)c3)n2)c1"
OUT: 44.9

###

# tested_system: Tyrosine-protein kinase ITK/TSK (Homo sapiens) (UniProt Q08881);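 note: mean percent inhibition of ITK from the GSK PKIS screen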
# Sequence (Q08881 whole entry): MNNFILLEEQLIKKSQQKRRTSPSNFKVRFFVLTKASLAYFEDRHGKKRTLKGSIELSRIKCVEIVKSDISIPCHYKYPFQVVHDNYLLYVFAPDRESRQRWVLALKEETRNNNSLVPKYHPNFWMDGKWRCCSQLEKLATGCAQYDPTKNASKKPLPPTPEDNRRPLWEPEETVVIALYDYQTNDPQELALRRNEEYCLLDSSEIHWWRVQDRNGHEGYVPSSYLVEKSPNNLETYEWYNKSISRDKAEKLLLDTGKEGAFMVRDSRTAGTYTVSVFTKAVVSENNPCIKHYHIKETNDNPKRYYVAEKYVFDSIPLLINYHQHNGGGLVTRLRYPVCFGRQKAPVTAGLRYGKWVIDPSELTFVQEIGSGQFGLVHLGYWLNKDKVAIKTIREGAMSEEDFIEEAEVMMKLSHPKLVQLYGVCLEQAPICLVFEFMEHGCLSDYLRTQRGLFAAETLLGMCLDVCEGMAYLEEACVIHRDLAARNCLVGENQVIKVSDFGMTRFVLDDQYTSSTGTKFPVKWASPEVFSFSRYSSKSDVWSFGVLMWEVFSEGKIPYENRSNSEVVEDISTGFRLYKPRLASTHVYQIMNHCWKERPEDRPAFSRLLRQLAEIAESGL
# test_parameters: at 0.1 µM
The entries below are paired with their reported inhibition.
Give the value; after it, write the unit.

Below: 3 compounds and their reported inhibition.
[[record]]
structure_as_smiles = "NS(=O)(=O)c1ccc(-c2cc3ccncc3cc2OCc2ccccc2)cc1"
tested_system = "Tyrosine-protein kinase ITK/TSK (Homo sapiens) (UniProt Q08881)"
experimental_endpoint = "inhibition"
result = "0.77%"

[[record]]
structure_as_smiles = "C[C@@H](Oc1cc(-n2cnc3ccc(OCC4CCN(C)CC4)cc32)sc1C(N)=O)c1ccccc1C(F)(F)F"
tested_system = "Tyrosine-protein kinase ITK/TSK (Homo sapiens) (UniProt Q08881)"
experimental_endpoint = "inhibition"
result = "-1.81%"

[[record]]
structure_as_smiles = "COc1cc2ncnc(Nc3ccc(C)c(O)c3)c2cc1OC"
tested_system = "Tyrosine-protein kinase ITK/TSK (Homo sapiens) (UniProt Q08881)"
experimental_endpoint = "inhibition"
result = "1.63%"


IN: Looking for the measured inhibition of "c1ccc(Nc2ncc(-c3ccccc3)o2)cc1" , can you help?
OUT: 0.38%

###

# Tested on: Receptor-type tyrosine-protein kinase FLT3 (Homo sapiens), P36888 [D835Y]
# test_parameters: at 1 µM
experimental_endpoint: inhibition (%)
Numeric answer only, unit % assumed.

Solved entries (count: 2):
[[record]]
structure_as_smiles = "Nc1nccc(-c2c(-c3ccc(F)cc3)ncn2CCCN2CCOCC2)n1"
tested_system = "Receptor-type tyrosine-protein kinase FLT3 (Homo sapiens), P36888 [D835Y]"
unit_string = "%"
result = -6.25

[[record]]
structure_as_smiles = "CCn1c(-c2nonc2N)nc2c(C#CC(C)(C)O)nc(OCCNC)cc21"
tested_system = "Receptor-type tyrosine-protein kinase FLT3 (Homo sapiens), P36888 [D835Y]"
unit_string = "%"
result = -0.49


IN: Reported inhibition for "NC(=O)c1sc(-n2cnc3ccccc32)cc1OCc1ccccc1Br" : what is it?
OUT: -5.34

IN: Record request: inhibition value, item "NC(=O)c1cccc(Nc2nccc(Nc3cccc(F)c3)n2)c1"
OUT: 21.2

IN: If you can, please state the reported inhibition value of "CC(C)c1ccc2c(c1)NC(=O)/C2=N/Nc1ccc(S(N)(=O)=O)cc1" .
OUT: 3.33

IN: Item under review: "NS(=O)(=O)c1cccc(Nc2cc(-c3ccc(F)cc3)n[nH]2)c1" . Reported inhibition?
OUT: 13.9

###

Reported inhibition values for a set of compounds
# tested_system: Serine/threonine-protein kinase DCLK2 (Homo sapiens) (UniProt Q8N568)
# Sequence (Q8N568 whole entry): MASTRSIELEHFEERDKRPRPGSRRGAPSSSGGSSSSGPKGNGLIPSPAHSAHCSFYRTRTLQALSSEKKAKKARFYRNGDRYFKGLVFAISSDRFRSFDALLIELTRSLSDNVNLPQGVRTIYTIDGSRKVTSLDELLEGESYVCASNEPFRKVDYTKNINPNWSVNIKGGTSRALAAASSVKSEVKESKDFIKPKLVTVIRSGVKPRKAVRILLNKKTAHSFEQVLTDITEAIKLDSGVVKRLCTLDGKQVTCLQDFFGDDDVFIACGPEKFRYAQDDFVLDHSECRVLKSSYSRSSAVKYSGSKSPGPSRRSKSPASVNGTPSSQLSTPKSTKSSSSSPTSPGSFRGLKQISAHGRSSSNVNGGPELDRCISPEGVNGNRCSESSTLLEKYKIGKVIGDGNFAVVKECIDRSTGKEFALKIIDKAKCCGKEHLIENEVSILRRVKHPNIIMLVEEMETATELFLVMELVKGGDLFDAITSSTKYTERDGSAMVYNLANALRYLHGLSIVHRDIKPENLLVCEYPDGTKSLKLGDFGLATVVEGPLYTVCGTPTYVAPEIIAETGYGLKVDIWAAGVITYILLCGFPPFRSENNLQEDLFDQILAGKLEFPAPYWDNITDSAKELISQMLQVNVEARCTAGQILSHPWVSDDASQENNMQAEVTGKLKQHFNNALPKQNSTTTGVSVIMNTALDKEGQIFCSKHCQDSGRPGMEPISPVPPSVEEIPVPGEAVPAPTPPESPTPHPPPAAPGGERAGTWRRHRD
# test_parameters: at 0.1 µM
Give just the number in %; leave the unit off.

[[record]]
structure_as_smiles = "N#Cc1cccc(Nc2nccc(-c3cnn4ncccc34)n2)c1"
result = 2.04

[[record]]
structure_as_smiles = "Oc1cccc(-c2nc(-c3ccccc3)[nH]c2-c2ccncc2)c1"
result = 2.33

[[record]]
structure_as_smiles = "Cc1ccc2c(-c3ccnc(Nc4ccc5c(c4)OCCO5)n3)c(-c3ccc(C(F)(F)F)cc3)nn2n1"
result = -1.42

[[record]]
structure_as_smiles = "CN(C)C(=O)O[C@H]1CN[C@H](C#Cc2cc3ncnc(Nc4ccc(OCc5cccc(F)c5)c(Cl)c4)c3s2)C1"
result = -0.33

[[record]]
structure_as_smiles = "COc1cc2ncn(-c3cc(OCc4ccccc4S(C)(=O)=O)c(C#N)s3)c2cc1OC"
result = 1.77

[[record]]
structure_as_smiles = "COc1cccc(-n2ncc3c(N/N=C/c4ccc(C)cc4)ncnc32)c1"
result = 0.26

[[record]]
structure_as_smiles = "Cc1ccc(O)cc1Nc1ccnc2ccc(S(C)(=O)=O)cc12"
result = 2.11

[[record]]
structure_as_smiles = "NS(=O)(=O)c1ccc(-c2cc3ccncc3cc2OCc2ccccc2)cc1"
result = 0.91


// below: inhibition requested for another compound
IN: // map "NS(=O)(=O)c1ccc(NC=C2C(=O)Nc3ccc4ncsc4c32)cc1" to recorded inhibition (system: Serine/threonine-protein kinase DCLK2 (Homo sapiens) (UniProt Q8N568));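 note: reported value is the mean percent inhibition of DCAMKL2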
OUT: 0.84

###

# tested_system: CDK3/Cyclin E (Homo sapiens) (UniProt P24864+Q00526);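 note: each figure is a mean percent inhibition of the CDK3/cyclin E complex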
# Sequence (P24864 whole entry, looked up): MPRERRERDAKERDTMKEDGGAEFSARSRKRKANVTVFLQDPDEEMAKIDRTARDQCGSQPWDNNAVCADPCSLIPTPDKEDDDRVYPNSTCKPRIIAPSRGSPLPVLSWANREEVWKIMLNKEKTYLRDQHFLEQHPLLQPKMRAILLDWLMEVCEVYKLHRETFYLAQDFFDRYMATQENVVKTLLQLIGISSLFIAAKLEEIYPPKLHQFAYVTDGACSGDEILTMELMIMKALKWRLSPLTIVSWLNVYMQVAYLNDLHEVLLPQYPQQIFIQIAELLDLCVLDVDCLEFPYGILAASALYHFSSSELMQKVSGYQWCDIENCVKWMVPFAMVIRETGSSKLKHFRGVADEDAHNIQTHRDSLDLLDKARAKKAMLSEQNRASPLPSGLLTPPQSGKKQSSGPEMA
# Sequence (Q00526 whole entry, looked up): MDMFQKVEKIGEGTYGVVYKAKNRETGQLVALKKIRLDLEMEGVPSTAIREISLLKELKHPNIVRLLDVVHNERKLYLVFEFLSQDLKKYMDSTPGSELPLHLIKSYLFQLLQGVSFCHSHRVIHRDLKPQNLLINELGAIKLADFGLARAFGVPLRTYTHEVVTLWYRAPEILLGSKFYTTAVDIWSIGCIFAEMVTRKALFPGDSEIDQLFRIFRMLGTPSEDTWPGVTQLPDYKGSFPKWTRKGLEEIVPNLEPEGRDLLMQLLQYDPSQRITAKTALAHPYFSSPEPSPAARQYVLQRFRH
# test_parameters: at 1 µM
Catalogue of inhibition readings, one per entry.
Just the number in %, nothing appended.

IN: Quick one: inhibition for "OCc1ccc(-c2nc(-c3ccccn3)c(-c3ccc4c(c3)OCO4)[nH]2)cc1" ?
OUT: 1.76

###

# tested_system: Tyrosine-protein kinase Blk (Homo sapiens) (UniProt P51451)
# Sequence (P51451 2-505 limits assumed): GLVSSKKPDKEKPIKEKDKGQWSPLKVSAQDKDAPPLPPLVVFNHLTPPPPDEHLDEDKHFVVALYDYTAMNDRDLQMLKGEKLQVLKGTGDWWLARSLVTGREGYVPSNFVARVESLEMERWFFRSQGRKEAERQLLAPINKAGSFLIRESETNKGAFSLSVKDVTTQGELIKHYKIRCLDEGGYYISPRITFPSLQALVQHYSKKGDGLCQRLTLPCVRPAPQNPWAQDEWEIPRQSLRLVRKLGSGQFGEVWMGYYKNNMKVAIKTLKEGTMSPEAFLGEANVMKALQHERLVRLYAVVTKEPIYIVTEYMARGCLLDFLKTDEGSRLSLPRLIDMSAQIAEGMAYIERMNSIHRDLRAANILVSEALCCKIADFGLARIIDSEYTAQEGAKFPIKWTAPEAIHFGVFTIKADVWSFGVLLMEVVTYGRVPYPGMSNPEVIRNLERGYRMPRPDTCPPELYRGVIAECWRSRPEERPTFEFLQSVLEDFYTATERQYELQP
# test_parameters: at 0.1 µM
The molecules listed here are annotated with their inhibition.
Lab book: enter the figure in %, no units written.

These solved cases illustrate the format of a correct answer.
[[record]]
structure_as_smiles = "NC(=O)c1cccc(Nc2nccc(Nc3cccc(F)c3)n2)c1"
result = 0.38

[[record]]
structure_as_smiles = "CC(C)c1ccc(Nc2nccc(-c3cnn4ncccc34)n2)cc1"
result = 1.48

[[record]]
structure_as_smiles = "COc1cccc(-n2ncc3c(N/N=C/c4ccc(S(C)(=O)=O)cc4)ncnc32)c1"
result = 7.91


Would you kindly look at the next entry?
IN: // map "c1ccc(Nc2ncc(-c3ccccc3)o2)cc1" to recorded inhibition (system: Tyrosine-protein kinase Blk (Homo sapiens) (UniProt P51451));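 note: reported value is the mean percent inhibition of BLK kinase activity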
OUT: 1.98

###

# tested_system: RAC-alpha serine/threonine-protein kinase (Homo sapiens)
# test_parameters: at 1 µM
# Description: GSK_PKIS: AKT1 mean inhibition at 1 uM [Nanosyn]
Parameter: inhibition. Scope: all listed entries.
The response must be a number in % with no trailing unit.

IN: Need inhibition, item "NS(=O)(=O)c1ccc(-c2cc3ccncc3cc2OCc2ccccc2)cc1"
OUT: 0.83

IN: GET /values?readout=inhibition&item= "Cc1cc(O)cc(C)c1/C=C/c1cncc(C(=O)N(C)C)c1"
OUT: 0.6

IN: Value lookup for inhibition; key = "NS(=O)(=O)c1ccc(N/N=C2\C(=O)Nc3ccc(Cl)cc32)cc1"
OUT: 1.19

IN: So what's the measured inhibition for this one? "ON=C1CCc2cc(-c3nc(C4CCNCC4)[nH]c3-c3ccncc3)ccc21"
OUT: -0.21

IN: GET /values?readout=inhibition&item= "CN(C)CCCn1c(-c2nonc2N)nc2cnccc21"
OUT: 1.38

IN: Looking for the measured inhibition of "COC(=O)c1cncc(/C=C/c2c(C)cc(O)cc2C)c1" , can you help?
OUT: 0.52

IN: Which measured inhibition value corresponds to "Nc1nccc(-c2c(-c3ccc(F)cc3)nn3cc(C(F)(F)F)ccc23)n1" ?
OUT: -0.66

IN: Bench note: what inhibition did "CN1CCN(C(=O)c2ccc(NC(=O)Nc3ccc(N(C)c4ccnc(Nc5ccc(CS(C)(=O)=O)cc5)n4)cc3)cc2)CC1" show?
OUT: -0.86

IN: Would you kindly share the measured inhibition for "COC(=O)c1ccc2c(c1)C(=Cc1cc(Br)c(O)c(Br)c1)C(=O)N2" ?
OUT: 0.66

IN: Consider the compound "COc1cc(/C=N/Nc2ncnc3c2cnn3C(C)C)ccc1O" and give its measured inhibition.
OUT: -2.56

IN: // inhibition lookup, key: "NC(=O)c1cccc(Nc2nccc(Nc3cccc(F)c3)n2)c1"
OUT: -0.29

IN: What inhibition value was documented for this compound, "Cc1ccc(Nc2ccnc(Nc3cccc(C(N)=O)c3)n2)cc1O" ?
OUT: -2.06

IN: Data request, read-out inhibition, for "COc1cccc(-n2ncc3c(N/N=C/c4ccc(S(C)(=O)=O)cc4)ncnc32)c1"
OUT: -2.91

IN: Quick one: inhibition of "NS(=O)(=O)c1ccc(NC=C2C(=O)Nc3ccc4ncsc4c32)cc1" ?
OUT: -0.15

IN: Quick one: inhibition for "CCn1c(-c2nonc2N)nc2c(C#CC(C)(C)O)nc(OCCNC)cc21" ?
OUT: 67.4

IN: Recorded inhibition of "CCOc1nccc2c1nc(-c1nonc1N)n2CC" , please.
OUT: 1.86

IN: Item "OCc1ccc(-c2nc(-c3ccccn3)c(-c3ccc4c(c3)OCO4)[nH]2)cc1" has what recorded inhibition?
OUT: 1.53
